experiment: inhibitors of hydroxyurea-induced Chk1 phosphorylation, primary screen, imaging, HeLa, phospho-Chk1 antibody, percent positive cells (AID 1186); details: hydroxyurea-induced phospho-Chk1 immunofluorescence imaging, higher = more signal
measurement_kind: z-score
Respond numerically, and do not add a unit to the figure.

Incoming: Please report the recorded z-score for "COCCCNC(=O)[C@]1(CCC(=O)OC(C)(C)C)N=C(c2ccc(OCCCO)cc2)O[C@@H]1c1ccccc1N=[N+]=[N-]" .
Outgoing: -0.437

Incoming: Same read-out for "COCCCNC(=O)[C@@]1(Sc2ccc(C)cc2)CC(=O)N(Cc2ccccc2)[C@@H]1c1ccc(CO)cc1I" ?
Outgoing: 0.442

Incoming: Please give the result for "COCCOC(=O)N1C(=O)[C@@]2(c3cc(C#CCNC(N)=O)ccc31)[C@H](c1ccccc1OCCO)N1[C@H](c3ccccc3)[C@H](c3ccccc3)OC(=O)[C@H]1[C@@H]2C(=O)N1CCN(c2ncccn2)CC1" too.
Outgoing: -0.44

Incoming: Another: "C=C(COC)/C(=C/C[C@H](OC(=O)c1ccncc1)c1ccc(CO)o1)c1cc(C(=O)OC)ccc1OC"
Outgoing: -0.35

Incoming: Note, next up: "COCCOC(=O)N1C(=O)[C@@]2(c3cc(C#Cc4ccc(OC)cc4)ccc31)[C@H](c1ccc(O)cc1)N1[C@H](c3ccccc3)[C@H](c3ccccc3)OC(=O)[C@H]1[C@@H]2C(N)=O"
Outgoing: -0.425

Incoming: Then what about the compound "C=C(CCCC)C(=O)CC[C@@H](OC(C)=O)c1cccc(OCCO)c1" ?
Outgoing: 0.163

Incoming: Entry "COC(=O)[C@@]1(Cc2ccc(F)cc2)[C@@H]2C(=CC(=O)[C@H]2CC(=O)C(=O)N(C)C)CN1C(=O)c1ccccc1" please
Outgoing: -0.0509

Incoming: Repeat with "Cc1ccc(S[C@]2(C(=O)NCC(F)(F)F)CC(=O)N(Cc3ccccc3Cl)[C@@H]2c2ccc(CO)cc2I)cc1"
Outgoing: 0.395

Incoming: Then this compound: "CCc1cccc(NC(=O)O[C@H]2[C@H](OC(=O)Nc3ccc4c(c3)OCO4)[C@@H](OC(=O)Nc3ccc4c(c3)OCO4)[C@@H](OC)O[C@@H]2CO)c1"
Outgoing: -0.313

Incoming: // next record "[N-]=[N+]=NCc1ccccc1C[C@]1(C(=O)NCc2ccccc2)N=C(c2ccc(OCCCO)cc2)O[C@H]1c1ccccc1N=[N+]=[N-]"
Outgoing: -0.278

Incoming: Note, next up: "COCCCNC(=O)[C@@]1(CCS(=O)(=O)c2ccccc2)N=C(c2ccc(OCCCO)cc2)O[C@H]1c1ccccc1"
Outgoing: -0.213

Incoming: Would you kindly repeat that for "C#C[C@@H](CC)O[Si](C#Cc1ccc(Oc2ccccc2)cc1)(C(C)C)C(C)C" ?
Outgoing: 0.169

Incoming: Try this compound next: "O=C1C[C@]2(c3ccc([N+](=O)[O-])cc3)C(=O)N(CCN3CCOCC3)c3cc(CO)ccc3[C@H]2N1CC12CC3CC(CC(C3)C1)C2"
Outgoing: 0.416

Incoming: Try "O=C1c2ccccc2[C@@]2(Cc3ccccc3N(C3CC3)C2=O)[C@H](c2ccc(CO)cc2)N1Cc1ccccc1C(F)(F)F" next.
Outgoing: 0.0523

Incoming: Same question, CC(C)(C)N1CC=CC23O[C@@H]4C=CCCOC(=O)C4[C@H]2C(=O)N(CCCCCO)[C@@H]3C1=O (some centres undefined) this time
Outgoing: -1.05

Incoming: Repeat for the following compound: "COc1ccccc1CN1C(=O)c2ccccc2[C@@H](C(=O)NCC(F)(F)F)[C@@H]1c1ccc(CO)cc1"
Outgoing: -0.188

Incoming: Item: O=C1C2C=CC(C(O)c3ccc([N+](=O)[O-])cc3)N(Nc3ccc([N+](=O)[O-])cc3)C2C(=O)N1c1ccccc1 (centres undefined)
Outgoing: 0.822

Incoming: Also, "CCCCC(=C=CC[C@H](O)c1ccccc1OCCO)C[C@H](O)COCc1ccccc1" please.
Outgoing: -0.15

Incoming: Same lookup for "C=CCOC(=O)[C@H]1[C@@H]2C(=O)O[C@@H](c3ccccc3)[C@@H](c3ccccc3)N2[C@@H](c2ccc(OCCOC(=O)[C@H]3C[C@H]4C(=O)N[C@@H](Cc5ccccc5)C(=O)N4[C@H]3c3ccc(O)cc3)cc2)[C@]12C(=O)Nc1ccccc12" , please.
Outgoing: 0.464

Incoming: Same read-out for "COC(=O)[C@]1(CO)N=C(c2ccc(OCCCO)cc2)O[C@@H]1c1ccccc1N=[N+]=[N-]" ?
Outgoing: 0.0389

Incoming: Also check N#Cc1ccc(NN2C(C(O)c3cc(C(F)(F)F)cc(C(F)(F)F)c3)C=CC3C(=O)N(c4ccccc4)C(=O)C32)cc1 (centres undefined)
Outgoing: 0.245

Incoming: Would you mind doing "CC(C)[Si]1(C(C)C)O[C@@H](c2ccccc2)c2cc(C3CC3)nc(-c3ccccc3)c21" as well?
Outgoing: -0.652

Incoming: Please give the result for "CC(C)OC(=O)C=C1C[C@@H](c2ccc(C#N)cc2)O[C@@H](c2ccc(C#N)cc2)O1" too.
Outgoing: 0.296

Incoming: Record: "C[N+](C)(C)CCCCCCNC(=O)[C@@H]1C[C@@H]2C(=O)N3CCC[C@H]3C(=O)N2[C@@H]1c1cccc(OCCO)c1"
Outgoing: -0.173

Incoming: Request: "COCCOC(=O)N1C(=O)[C@@]2(c3cc(C#CC4(O)CCCCCC4)ccc31)[C@H](c1ccc(OCCO)cc1)N1[C@H](c3ccccc3)[C@H](c3ccccc3)OC(=O)[C@H]1[C@@H]2C(=O)NC[C@H](O)c1ccccc1"
Outgoing: 0.0412

Incoming: And the next one, "COCCCNC(=O)[C@]1(Cc2ccccc2)N=C(c2ccc(OCCCO)cc2)O[C@@H]1c1ccccc1" ?
Outgoing: -0.117

Incoming: Now this one: "CC(C)C[C@@H]1NC(=O)[C@H]2C[C@@H](C(=O)O)[C@@H](c3ccc(O)cc3)N2C1=O"
Outgoing: -0.523

Incoming: // same read-out, input: "COc1ccc([Si](C)(C)[C@H]2[C@H](CCO)O[C@@]3(C(=O)N(Cc4cccc(NC(=O)[C@H](C)O)c4)c4ccccc43)[C@@H]2C)cc1"
Outgoing: -1.95

Incoming: Can you handle "C/C=C\[C@@H](NCc1ccccc1Br)[C@@H](O)Cc1ccccc1" next?
Outgoing: 0.0731
